Values from the NIST ThermoML archive (doi:10.1016/j.tca.2015.02.014)

# ASSAY NOTES: mn = molality of the nth substance listed, in mol/kg
# SETUP CONDITIONS: 293.15 K; 100 kPa; Liquid; Capillary tube (Ostwald / Ubbelohde) method; m1 = 0.1
VALUE KIND: viscosity (mPa·s)

MOLECULE: CC(C)C[C@H](N)C(=O)O [L-leucine] + O
UNIT OF MEASURE: mPa·s
viscosity: 1.06
--
MOLECULE: N[C@@H](Cc1c[nH]cn1)C(=O)O [L-histidine] + O
UNIT OF MEASURE: mPa·s
viscosity: 1.052
--
MOLECULE: NCC(=O)O [2-aminoacetic acid] + O
UNIT OF MEASURE: mPa·s
viscosity: 1.016
--
MOLECULE: CSCC[C@H](N)C(=O)O [L-methionine] + O
UNIT OF MEASURE: mPa·s
viscosity: 1.034

###

# ASSAY NOTES: mn = molality of the nth substance listed, in mol/kg
# SETUP CONDITIONS: 308.15 K; 100 kPa; Liquid; Frequency=3 MHz; Sing-around technique in a fixed-path interferometer; m1 = 0.1
VALUE KIND: speed of sound (m/s)

MOLECULE: NCC(=O)O [2-aminoacetic acid] + O
speed of sound / m/s: 1525
//
MOLECULE: CSCC[C@H](N)C(=O)O [L-methionine] + O
speed of sound / m/s: 1528.7
//
MOLECULE: CC(C)C[C@H](N)C(=O)O [L-leucine] + O
speed of sound / m/s: 1530.3
//
MOLECULE: N[C@@H](Cc1c[nH]cn1)C(=O)O [L-histidine] + O
speed of sound / m/s: 1527.6

###

# ASSAY NOTES: mn = molality of the nth substance listed, in mol/kg
# SETUP CONDITIONS: 298.15 K; 100 kPa; Liquid; Vibrating tube method; m1 = 0.1
VALUE KIND: mass density (kg/m3)

MOLECULE: N[C@@H](Cc1c[nH]cn1)C(=O)O [L-histidine] + O
UNIT OF MEASURE: kg/m3
mass density: 1002.8
//
MOLECULE: NCC(=O)O [2-aminoacetic acid] + O
UNIT OF MEASURE: kg/m3
mass density: 1000.32
//
MOLECULE: CC(C)C[C@H](N)C(=O)O [L-leucine] + O
UNIT OF MEASURE: kg/m3
mass density: 999.575
//
MOLECULE: CSCC[C@H](N)C(=O)O [L-methionine] + O
UNIT OF MEASURE: kg/m3
mass density: 1001.58

###

# ASSAY NOTES: mn = molality of the nth substance listed, in mol/kg
# SETUP CONDITIONS: 308.15 K; 100 kPa; Liquid; Capillary tube (Ostwald / Ubbelohde) method; m1 = 0.1
VALUE KIND: viscosity (mPa·s)

COMPOUND: CSCC[C@H](N)C(=O)O [L-methionine] + O
viscosity, mPa·s: 0.7461
--
COMPOUND: NCC(=O)O [2-aminoacetic acid] + O
viscosity, mPa·s: 0.7271
--
COMPOUND: N[C@@H](Cc1c[nH]cn1)C(=O)O [L-histidine] + O
viscosity, mPa·s: 0.7447
--
COMPOUND: CC(C)C[C@H](N)C(=O)O [L-leucine] + O
viscosity, mPa·s: 0.7509
